Origin of the recorded values: ChEMBL document CHEMBL1135826

Test system: Escherichia coli
Assay: Minimum inhibitory concentration (lowest peptide concentration) required to prevent visible bacterial growth after 18 hr of incubation at 37 C in Mueller-Hinton broth against Escherichia coli O18:K1:H7
Assay type: functional
measure: MIC (µM)
Give just the number in µM; leave the unit off.

>  <substance>
H-GKPRPYSPRPSHPRPIRV-OH

>  <MIC [µM]>
64

$$$$

Param readout = MIC; param system = Escherichia coli; param query = "H-GKPRPYSPRPASHPRPIRV-OH" ; response: value
16

Param readout = MIC; param system = Escherichia coli; param query = H-GKPRPYSPRPTSHPRPIRV-OH [DROSOCIN] ; response: value
8
